molecular target: Protein tyrosine phosphatase 1B (human recombinant) (Homo sapiens); experiment: Determination of the inhibition mode (Lineweaver–Burk and Dixon plots); conditions: Dixon plot; p-NPP substrate
Sequence (P18031 whole entry): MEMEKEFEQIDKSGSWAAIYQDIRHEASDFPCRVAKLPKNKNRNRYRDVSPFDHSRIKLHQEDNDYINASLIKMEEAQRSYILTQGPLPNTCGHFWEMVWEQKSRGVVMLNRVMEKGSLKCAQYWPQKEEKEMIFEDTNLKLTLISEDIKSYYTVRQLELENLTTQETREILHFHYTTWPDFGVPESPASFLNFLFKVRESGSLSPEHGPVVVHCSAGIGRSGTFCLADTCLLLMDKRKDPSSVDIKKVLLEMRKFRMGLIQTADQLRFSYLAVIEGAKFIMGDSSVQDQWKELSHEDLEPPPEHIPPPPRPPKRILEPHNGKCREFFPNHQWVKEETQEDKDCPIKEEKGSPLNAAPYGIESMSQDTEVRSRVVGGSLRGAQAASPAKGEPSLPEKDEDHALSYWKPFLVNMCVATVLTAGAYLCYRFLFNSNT
metric: Ki (µM)

C=C[C@@]1(C)C[C@@H](O)[C@H]2[C@](O)(C1=O)[C@H](O)C[C@H]1C(C)(C)[C@H](OC(C)=O)[C@H](OC(C)=O)[C@H](OC(=O)c3ccccc3)[C@@]12C [Compound 5, orthosiphol G] ... 23.9

1: C=C[C@@]1(C)CC(=O)[C@H]2[C@](O)(C1=O)[C@H](O)C[C@H]1C(C)(C)[C@H](OC(C)=O)[C@H](OC(C)=O)[C@H](OC(=O)c3ccccc3)[C@@]12C [Compound 6, orthosiphol I]
2: C=C[C@@]1(C)C[C@@H](OC(=O)c2ccccc2)[C@H]2[C@](O)(C1=O)[C@H](OC(C)=O)C[C@H]1C(C)(C)[C@H](OC(C)=O)[C@H](O)[C@H](OC(=O)c3ccccc3)[C@@]12C [Compound 3, orthosiphol B]
In terms of reported Ki, does 1 or 2 have the smaller number? # answer = label of selected item
1
